assay: chemical genetic growth profiling, strain panel (AID 1159580);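 further: tested at 20 µM; growth read once vehicle control cultures reached saturation at 30 °C; lower values mean less growth of the strain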; conditions: S. cerevisiae deletion strains, growth OD, locus YOL006C, strain TOP1
The campaign covered roughly 5,500 compounds. About 2,000 (36%) were called active. Another 18% or so got no clear call; they are omitted. No stated cut-off is given here; in the data, active means normalized growth mostly below about 0.91 (no sharp cut-off); inconclusive means no clear call, values can overlap the other calls; inactive means mostly above about 0.92. The list shows a part of the results.
Hi there, use one of these labels in your reply, thanks! active, inactive

Past entries and their recorded results:
c1ccc(CSC2=NCCCN2)cc1    inactive
O=C(CCN1CCOCC1)c1ccc2c(c1)OCCO2    active

Enquiry: Which outcome was assigned to CC(=O)c1ccc(-c2ccc(C(C)=O)cc2)cc1 in this test?
Return: inactive

Enquiry: And then CC(COc1ccccc1)N(CCCl)Cc1ccccc1 (stereo not given) , what is it?
Return: inactive

Enquiry: And then CCC(=O)c1ccc(-c2ccccc2)cc1 , what is it?
Return: active
